Reference source for all entries: patent US10428140B2

system-name: T1, human EphA5 (Homo sapiens, UniProt P54756)
T1 construct: a protein of the extracellular region of each human Eph receptor fused with the SEAP protein and the His tag; made in house; host or cells: Expi293F cells (culture supernatant)
T1 sequence (P54756 25-573 limits assumed): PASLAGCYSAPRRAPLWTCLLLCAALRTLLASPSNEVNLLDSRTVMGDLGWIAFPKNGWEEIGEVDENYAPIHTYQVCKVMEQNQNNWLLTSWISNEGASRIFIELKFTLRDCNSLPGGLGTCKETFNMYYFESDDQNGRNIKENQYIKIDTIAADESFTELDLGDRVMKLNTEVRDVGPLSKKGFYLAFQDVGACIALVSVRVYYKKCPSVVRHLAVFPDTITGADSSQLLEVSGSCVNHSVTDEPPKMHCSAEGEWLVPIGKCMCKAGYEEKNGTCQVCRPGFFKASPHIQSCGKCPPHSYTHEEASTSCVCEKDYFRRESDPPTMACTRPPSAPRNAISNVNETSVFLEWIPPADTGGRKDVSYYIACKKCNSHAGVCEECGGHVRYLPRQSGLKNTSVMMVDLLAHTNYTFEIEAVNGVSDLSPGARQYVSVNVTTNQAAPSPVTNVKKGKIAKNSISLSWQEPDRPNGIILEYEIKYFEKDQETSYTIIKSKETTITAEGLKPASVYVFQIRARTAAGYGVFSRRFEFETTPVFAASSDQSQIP
protocol-description: Selectivity ELISA of humanized antibodies for human Eph receptor
Type: binding
reported-conditions: coated protein 1 nM
Reported hEphA5-SEAP-: absorbance at 450 nm, percentage with respect to hEphA4-SEAP-His as 100% values for the following molecules.
test-readout: hEphA5-SEAP-: absorbance at 450 nm, percentage with respect to hEphA4-SEAP-His as 100% (%)

{"molecule": "145 (antibody, V domains shown, synthetic humanized antibody heavy chain variable region sequence; synthetic humanized antibody light chain variable region sequence) VH: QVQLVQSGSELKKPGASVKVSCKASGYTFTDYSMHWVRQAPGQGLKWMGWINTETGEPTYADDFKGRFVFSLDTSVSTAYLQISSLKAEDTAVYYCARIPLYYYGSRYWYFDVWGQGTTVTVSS VL: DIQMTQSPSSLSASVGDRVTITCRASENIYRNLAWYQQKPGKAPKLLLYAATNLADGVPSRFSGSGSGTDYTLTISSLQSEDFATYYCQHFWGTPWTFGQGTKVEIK", "assay-result": 6.6}
{"molecule": "89 (antibody, V domains shown, constant regions without entry; synthetic humanized antibody light chain variable region sequence; synthetic humanized antibody heavy chain variable region sequence) VL: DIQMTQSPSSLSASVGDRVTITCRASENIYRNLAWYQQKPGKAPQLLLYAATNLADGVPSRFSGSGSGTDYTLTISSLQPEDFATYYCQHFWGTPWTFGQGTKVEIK VH: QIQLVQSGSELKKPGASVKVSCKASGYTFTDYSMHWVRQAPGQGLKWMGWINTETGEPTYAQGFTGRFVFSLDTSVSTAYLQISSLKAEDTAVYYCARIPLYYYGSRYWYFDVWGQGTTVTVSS", "assay-result": 5.8}
{"molecule": "92 (antibody, V domains shown, constant regions without entry; synthetic humanized antibody light chain variable region sequence; synthetic humanized antibody heavy chain variable region sequence) VL: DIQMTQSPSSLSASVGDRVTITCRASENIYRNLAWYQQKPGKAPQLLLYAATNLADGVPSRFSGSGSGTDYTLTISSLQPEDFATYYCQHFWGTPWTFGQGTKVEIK VH: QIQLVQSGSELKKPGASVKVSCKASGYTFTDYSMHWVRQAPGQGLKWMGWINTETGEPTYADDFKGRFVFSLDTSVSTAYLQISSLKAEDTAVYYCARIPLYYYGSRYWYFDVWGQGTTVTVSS", "assay-result": 6.8}
